Just for reference, patent EP2364976B1 is where these values come from.

# target entity: UniProtKB P21453
# test method notes: hS1P1 EC50 (S1P receptor Ca2+ flux protocol, FLIPR, CHO K1 Gqi5 cells)
# conditions used: several values per compound = repeat determinations as printed
Property: EC50; scope: individual compounds

| compound | endpoint unit | EC50 |
| --- | --- | --- |
| NC(=O)C(CC(=O)O)NCc1ccc(-c2cc3cc(Cc4ccccc4)ccc3o2)c(F)c1 (stereo not shown) [Reference Compound 85] | µM | 1.88 |
| O=C(O)C1CN(Cc2ccc(-c3nc4ccc(Cc5ccccc5)cc4s3)c(F)c2)C1 [Reference Compound 118] | µM | 0.149 |
| O=C(O)C1CN(Cc2ccc(-c3cc4cc(-c5cccs5)ccc4o3)cc2)C1 [Reference Compound 28] | µM | 1.8 |
| O=C(O)C1CN(Cc2ccc(-c3cc4cc(C5CCCC5)ccc4o3)c(Cl)c2)C1 [Reference Compound 51] | µM | 0.558 |
| O=C(O)C1CN(Cc2ccc(-c3ccc4oc(Cc5ccccc5)cc4c3)c(F)c2)C1 [Reference Compound 80] | µM | 0.059 |
| O=C(O)C1CN(Cc2ccc(-c3nc4ccc(Cc5ccccc5)cc4[nH]3)c(F)c2)C1 [Reference Compound 115] | µM | 4.95 |
| O=C(O)C1CN(Cc2ccc(-c3cc4cc(Cc5ncccn5)ccc4o3)c(F)c2)C1 [Reference Compound 100] | µM | 0.087 |

###

# target entity: hS1P1 (Homo sapiens)
# test method notes: hS1P1 EC50 (S1P receptor Ca2+ flux protocol, FLIPR, CHO K1 Gqi5 cells)
# conditions used: several values per compound = repeat determinations as printed

| molecule | EC50 |
| --- | --- |
| O=C(O)C1CN(Cc2ccc(-c3cc4cc(Cc5ccccn5)ccc4o3)c(F)c2)C1 [Reference Compound 93] | 31 nM |
| O=C(O)CCNC1Cc2ccc(-c3cc4cc(Cc5ccccc5)ccc4o3)cc2C1 (stereo not drawn) [Reference Compound 45] | 807 nM |
| O=C(O)C1CN(Cc2ccc(-c3cc4cc(Cc5ccccc5)ccc4o3)c(Cl)c2)C1 [Reference Compound 36] | 199 nM |
| Fc1cc(CN2CC(c3nn[nH]n3)C2)ccc1-c1cc2cc(Cc3ccccc3)ccc2o1 [Reference Compound 78] | 2090 nM |
| CCCCOc1ccc2oc(-c3ccc(CN4CC(C(=O)O)C4)cc3Cl)cc2c1 [Reference Compound 50] | 266 nM |
| O=C(O)C1CN(Cc2ccc(-c3cc4cc(COC5CCCCC5)ccc4o3)c(F)c2)C1 [Reference Compound 70] | 91 nM |
| O=C(O)C1CN(Cc2ccc(-c3cc4cc(OCC5CCCC5)ccc4o3)c(F)c2)C1 [Reference Compound 38] | 803 nM |
| O=C(O)C1CN(Cc2ccc(-c3cc4cc([S+]([O-])c5ccccc5)ccc4o3)c(F)c2)C1 (stereo not drawn) [Reference Compound 65] | 67 nM |
| O=C(O)C1CN(Cc2ccc(-c3cc4cc(OCC5CCCC5)ccc4o3)c(F)c2)CCO1 (stereo not drawn) [Reference Compound 55] | > 25000 nM |
| O=C(O)C1CN(Cc2cnc(-c3cc4cc(Cc5ccccc5)ccc4o3)nc2)C1 [Reference Compound 121] | 1320 nM |
| O=C(O)C1CN(Cc2ccc(-c3cc4cc(Oc5ccccc5)ccc4o3)c(F)c2)C1 [Reference Compound 77] | 13 nM |
| O=C(O)C1CN(Cc2ccc(-c3cc4cc(C(=NO)c5ccccc5)ccc4o3)c(F)c2)C1 (mixture of isomers) [Reference Compound 103] | 16 nM |
| O=C(O)[C@@H]1CCCN(Cc2ccc(-c3cc4cc(Cc5ccccc5)ccc4o3)c(F)c2)C1 [Reference Compound 62] | 5450 nM |
| CCCCOc1ccc2oc(-c3ccc(CN4CCC(C(=O)O)CC4)cc3)cc2c1 [Reference Compound 16] | 17000 nM |
| Cc1nc(-c2cc3cc(Cc4ccccc4)ccc3o2)ccc1CN1CC(C(=O)O)C1 [Reference Compound 122] | 420 nM |
| O=C(O)C1CCN(Cc2ccc(-c3cc4cc(Cc5ccccc5)ccc4o3)cc2)CC1 [Reference Compound 9] | 4800 nM |
| O=C(O)C1CN(Cc2ccc(-c3cc4ccccc4o3)c(F)c2)C1 [Reference Compound 68] | 706 nM |
| CCCCOc1ccc2oc(-c3ccc4c(c3)CCN(CCC(=O)O)C4)cc2c1 [Reference Compound 44] | 4440 nM |
| O=C(O)C1CN(Cc2ccc(-c3cc4cc(C5CCOCC5)ccc4o3)c(F)c2)C1 [Reference Compound 61] | 207 nM |
| O=C(O)C1CN(Cc2ccc(-c3cc4cc(Cc5ccccc5)nc(Cl)c4o3)c(F)c2)C1 [Reference Compound 107] | 2580 nM |
| O=C(O)C1CN(Cc2ccc(-c3cc4cc(Cc5cccc(F)c5)ccc4o3)c(F)c2)C1 [Reference Compound 76] | 169 nM |
| O=C(O)C1CN(Cc2ccc(-c3nc4cc(Oc5ccccc5)ccc4o3)c(F)c2)C1 [Reference Compound 116] | 12 nM |
| O=C(O)C1CN(Cc2ccc(-c3nc4cc(Cc5ccccc5)ccc4o3)cc2)C1 [Reference Compound 113] | 364 nM |
| O=C(O)C1CN(Cc2ccc(-c3nc4cc(Sc5ccccc5)ccc4o3)c(F)c2)C1 | 3 nM |
| O=C(O)C1CN(Cc2ccc(-c3cc4cc(-c5ccccc5)ccc4o3)cc2)C1 [Reference Compound 1] | 1200 nM |
| O=C(O)C1CN(Cc2ccc(-c3cc4cc(N5CCOCC5)ccc4o3)c(F)c2)C1 [Reference Compound 53] | 2090 nM |
| O=C(O)C1(O)CN(Cc2ccc(-c3nc4cc(Cc5ccccc5)ccc4s3)c(F)c2)C1 [Reference Compound 89] | 27 nM |
| O=C(O)C1CN(Cc2ccc(-c3cc4cc(CC5CCCCC5)ccc4o3)c(F)c2)C1 [Reference Compound 74] | 400 nM |
| O=C(O)C1CN(Cc2ccc(-c3cc4cc(Cc5nccs5)ccc4o3)c(F)c2)C1 [Reference Compound 94] | 76 nM |
| Cc1ccc(Cc2ccc3oc(-c4ccc(CN5CC(C(=O)O)C5)cc4F)cc3c2)cc1 [Reference Compound 86] | 12 nM |

###

# target entity: hS1P1 (Homo sapiens, UniProt P21453)
# Sequence (P21453 whole entry): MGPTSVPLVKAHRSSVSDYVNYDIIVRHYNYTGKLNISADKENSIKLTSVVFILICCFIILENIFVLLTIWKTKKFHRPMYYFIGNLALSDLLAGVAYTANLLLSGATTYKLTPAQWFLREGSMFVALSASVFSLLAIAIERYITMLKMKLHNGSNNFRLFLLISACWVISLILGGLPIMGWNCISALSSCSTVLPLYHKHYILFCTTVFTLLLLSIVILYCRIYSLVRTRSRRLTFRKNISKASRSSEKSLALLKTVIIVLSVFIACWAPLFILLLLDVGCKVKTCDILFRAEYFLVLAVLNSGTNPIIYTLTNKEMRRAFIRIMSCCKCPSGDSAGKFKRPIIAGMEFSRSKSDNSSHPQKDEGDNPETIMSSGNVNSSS
# test method notes: hS1P1 EC50 (S1P receptor Ca2+ flux protocol, FLIPR, CHO K1 Gqi5 cells)
# conditions used: several values per compound = repeat determinations as printed
measurement label: EC50 (nM)

| compound | measurement label | assay value |
| --- | --- | --- |
| CCCCOc1ccc2cc(-c3ccc(CN4CC(C(=O)O)C4)cc3)oc2c1 [Reference Compound 21] | EC50 | 2000 |
| O=C(O)CCN1CCc2cc(-c3cc4cc(OCC5CCCC5)ccc4o3)ccc2C1 [Reference Compound 57] | EC50 | 877 |
| O=C(O)C1CN(Cc2cccc(-c3cc4cc(Cc5ccccc5)ccc4o3)c2)C1 [Reference Compound 96] | EC50 | 4830 |
| O=C(O)C1CN(Cc2ccc(-c3cc4cc(CCc5ccccc5)ccc4o3)cc2)C1 [Reference Compound 11] | EC50 | 580 |
| O=C(O)C1CN(Cc2ccc(-c3cc4ccc(Cc5ccccc5)cc4o3)c(F)c2)C1 [Reference Compound 92] | EC50 | 7 |
| O=C(O)C1CN(Cc2ccc(-n3cc4cc(Cc5ccccc5)ccc4n3)c(F)c2)C1 [Reference Compound 87] | EC50 | 94 |
| O=C(O)C1CN(Cc2ccc(-c3nc4ccc(Cc5ccccc5)cc4o3)c(F)c2)C1 [Reference Compound 111] | EC50 | 8 |
| O=C(O)CCN1CCc2cc(-c3cc4cc(C5CCCC5)ccc4o3)ccc2C1 [Reference Compound 37] | EC50 | 4170 |
| O=C(O)C1CN(Cc2ccc(-c3nc4cc(Cc5ccccc5)ccc4o3)c(F)c2)C1 [Reference Compound 112] | EC50 | 19 |
| O=C(O)C1CN(Cc2ccc(-c3cc4cc(COC5CCC5)ccc4o3)c(F)c2)C1 [Reference Compound 67] | EC50 | 25 |
| NC(=O)CC(NCc1ccc(-c2cc3cc(Cc4ccccc4)ccc3o2)c(F)c1)C(=O)O (stereo not drawn) [Reference Compound 83] | EC50 | 2300 |
| O=C(O)C1CN(Cc2ccc(-c3cc4cc(OCC5CC5)ccc4o3)c(F)c2)C1 [Reference Compound 49] | EC50 | 109 |
| O=C(O)C1CN(Cc2cc(F)c(-c3cc4cc(Cc5ccccc5)ccc4o3)c(F)c2)C1 [Reference Compound 48] | EC50 | 89 |
| O=C(O)C1CN(Cc2ccc(-c3cc4cc(COc5ccccc5)ccc4o3)c(F)c2)C1 [Reference Compound 69] | EC50 | 87 |
| O=C(O)C1CN(Cc2ccc(-c3cc4cc(COCC5CC5)ccc4o3)c(F)c2)C1 [Reference Compound 66] | EC50 | 75 |

###

# target entity: hS1P1 (Homo sapiens, UniProt P21453)
# test method notes: hS1P1 EC50 (S1P receptor Ca2+ flux protocol, FLIPR, CHO K1 Gqi5 cells)
# conditions used: several values per compound = repeat determinations as printed
Counter-ions that a name gives are not always drawn.
Property: EC50; scope: individual molecules
measurement label: EC50 (nM)

| molecule | measurement label | assay value |
| --- | --- | --- |
| O=C(O)C1CN(Cc2ccc(-c3cc4cc(C5CCCC5)ccc4o3)cc2)C1 [Reference Compound 30] | EC50 | 210 |
| CCCCc1ccc2oc(-c3ccc(CN4CCC(C(=O)O)CC4)cc3)cc2c1 [Reference Compound 8] | EC50 | 3100 |
| Cc1cc(CN2CC(C(=O)O)C2)ccc1-c1cc2cc(Cc3ccccc3)ccc2o1 [Reference Compound 43] | EC50 | 241 |
| O=C(O)C1CN(Cc2ccc(-c3cn4ccc(Cc5ccccc5)cc4n3)c(F)c2)C1 [Inventive Compound 119, trifluoroacetic acid salt] | EC50 | 54 |
